# Assay Remarks: gradient 5% acetonitrile 3 min, to 50% in 2 min, to 85% in 15 min, held 3 min, 100 µL/min
# Stated Conditions: column: Zorbax Extend-C18 2.1 x 50 mm; eluents: water / acetonitrile, 0.1% formic acid
Param threshold (800 s) applies to RP-LC retention time; output yes when value >= threshold, no when value < threshold.

API: above_or_equal(metric=RP-LC retention time, cutoff=800 s) for item "CC(C)OCCCNC(=O)c1ccc2nc(Cc3ccccc3)oc2c1"
yes

API: above_or_equal(metric=RP-LC retention time, cutoff=800 s) for item "C=CCN1CCN(C(=O)C2=NN(c3ccc(Cl)cc3)c3ncccc3S2(=O)=O)CC1"
no

API: above_or_equal(metric=RP-LC retention time, cutoff=800 s) for item "O=C(Cn1c(CN2CCCCCC2)nc2ccccc21)N1CCOCC1"
no

API: above_or_equal(metric=RP-LC retention time, cutoff=800 s) for item "CC1CCN(C(=O)c2cc(S(=O)(=O)N3CCC(C(=O)NC4CCCCC4)CC3)cn2C)CC1"
yes

API: above_or_equal(metric=RP-LC retention time, cutoff=800 s) for item CC(NC(=O)Cn1c(C(F)(F)F)nc2cc3c(cc21)OCCO3)c1ccc2c(c1)OCCCO2 (centres undefined)
yes

====

RP-LC retention time values by entry
# Assay Remarks: gradient 5% acetonitrile 3 min, to 50% in 2 min, to 85% in 15 min, held 3 min, 100 µL/min
# Stated Conditions: column: Zorbax Extend-C18 2.1 x 50 mm; eluents: water / acetonitrile, 0.1% formic acid

The examples below pair each entry with its known result.
Molecule	RP-LC retention time
CCC1CCCCN1C(=O)c1cnc2nc(C)ccc2c1Nc1cc(C)cc(C)c1 (stereo not drawn)	722 s
COc1ccc(OC)c(S(=O)(=O)N2CC(N3CC(C(=O)N4CCCC4)CC3=O)C2)c1 (stereo not drawn)	666 s
CC(C)(C)C(=O)Nc1cnc(-c2cccc(Cl)c2)nc1	1070 s
CCc1noc2nc(C)nc(N3CCCC(C(=O)NC4CC4)C3)c12 (stereo not drawn)	711 s
O=C(Cc1ccc(Cl)cc1)N1CCN(c2ccc(Nc3ccccn3)nn2)CC1	603 s
CCN1C(=O)COc2cc(-c3noc(C(=O)N4CCN(c5cccc(Cl)c5)CC4)n3)ccc21	1140 s
Cc1ccc(-c2c(C(F)(F)F)nn3c(N4CCN(c5ccccn5)CC4)cc(C)nc23)cc1	910 s
CCOC(=O)C1=C(CN(C)Cc2ccccc2)NC(=O)NC1c1cccc(OC)c1OC (stereo not drawn)	659 s

Could you tell me which RP-LC retention time is on file for "COc1ccc(F)cc1S(=O)(=O)N1CCC(C(=O)Nc2cc(C)on2)CC1" ?
745 s

Could you tell me which RP-LC retention time is on file for "Cc1nnc(-c2nnc(NC3CCCCCC3)c3ccccc23)o1" ?
766 s

====

RP-LC retention time values by entry
# Assay Remarks: gradient 5% acetonitrile 3 min, to 50% in 2 min, to 85% in 15 min, held 3 min, 100 µL/min
# Stated Conditions: column: Zorbax Extend-C18 2.1 x 50 mm; eluents: water / acetonitrile, 0.1% formic acid

Compound	RP-LC retention time
Cc1ccc2c(=O)c3c([nH]c2c1C)CCN(CC(=O)Nc1ccccc1Cl)C3	640 s
COc1c(C(=O)N2CCN(C3CCCCC3)CC2)sc2ccc(F)cc12	685 s
CCn1cnc(S(=O)(=O)N2CCC(C(=O)N3CCN(c4cc(Cl)ccc4C)CC3)CC2)c1	916 s
Cc1ccccc1NC(=O)N1CCC(n2cnc3c(C)cccc3c2=O)CC1	754 s
O=C(c1ccccc1Br)N1CCc2nc[nH]c2C1	563 s

From here, focus on the item given below.
Could you tell me which RP-LC retention time is on file for "COc1cccc(-c2nc(-c3ccc(NS(=O)(=O)c4cccs4)cc3)no2)c1OC" ?
1040 s

====

# Assay Remarks: gradient 5% acetonitrile 3 min, to 50% in 2 min, to 85% in 15 min, held 3 min, 100 µL/min
# Stated Conditions: column: Zorbax Extend-C18 2.1 x 50 mm; eluents: water / acetonitrile, 0.1% formic acid
RP-LC retention time values by entry
Please give a number only; it is taken to be in s.

Could you tell me which RP-LC retention time is on file for "Cc1ccc(NC(=O)C2CCN(S(=O)(=O)c3cn(C(C)C)cn3)CC2)c(Br)c1" ?
838

Could you tell me which RP-LC retention time is on file for "CCCN(CCC)CCCNC(=O)C1=C(C)C(=O)OC12CCN(Cc1ccccc1)CC2" ?
558

Could you tell me which RP-LC retention time is on file for CCN(CC)CCCNC(=O)c1ccc2c(c1)N(C)C(=O)C1CCCCN21 (stereo not given) ?
608

Could you tell me which RP-LC retention time is on file for "Cc1ccc2c(c1)cc(S(=O)(=O)c1ccccc1)c(=O)n2CC(=O)N1CCCC1" ?
817

Could you tell me which RP-LC retention time is on file for "Cc1nn(C)cc1CN(C)C(=O)c1cc2c(=O)n(CC(C)C)c3ccccc3n2n1" ?
808

====

# Assay Remarks: gradient 5% acetonitrile 3 min, to 50% in 2 min, to 85% in 15 min, held 3 min, 100 µL/min
# Stated Conditions: column: Zorbax Extend-C18 2.1 x 50 mm; eluents: water / acetonitrile, 0.1% formic acid
Metric: RP-LC retention time (s)
Please give a number only; it is taken to be in s.

The examples below pair each entry with its known result.
Molecule	RP-LC retention time / s
CN1C(=O)C2(CCN(C(=O)Nc3ccc4c(c3)OCO4)C2)c2ccccc21 (stereo not given)	752
COc1ccc(S(=O)(=O)N2CCCC(C(=O)N3CCC(Cc4ccccc4)CC3)C2)cc1Cl (stereo not given)	1170
Cc1cc(C2CCCN2C(=O)Nc2cc(Cl)ccc2C)on1 (stereo not given)	794

Could you tell me which RP-LC retention time is on file for "COc1ccc(-c2cc3c4nn(CC(=O)Nc5cccc(C)c5C)c(=O)n4ccn3n2)cc1" ?
840

Could you tell me which RP-LC retention time is on file for CC(C)NC(=O)CC1Sc2ncccc2N(C)C1=O (stereo not given) ?
604

====

# Assay Remarks: gradient 5% acetonitrile 3 min, to 50% in 2 min, to 85% in 15 min, held 3 min, 100 µL/min
# Stated Conditions: column: Zorbax Extend-C18 2.1 x 50 mm; eluents: water / acetonitrile, 0.1% formic acid
Metric: RP-LC retention time (s)
Please give a number only; it is taken to be in s.

Compound	RP-LC retention time, s
Cc1cccc(OCc2nc(C)c(C(=O)Nc3nc(-c4ccc5c(c4)OCCCO5)cs3)s2)c1	1230
CC1CCCN(c2ccc(-c3noc(CN4CCC(C(N)=O)CC4)n3)cn2)C1 (stereo not given)	589
CCCS(=O)(=O)Nc1ccc(F)c(C(=O)c2c[nH]c3ncc(Cl)cc23)c1F	878
NCCc1noc(-c2ccccc2)n1	580

From here, focus on the item given below.
Could you tell me which RP-LC retention time is on file for "Cc1csc(-c2cc(S(=O)(=O)NC3CCCC3)cn2CC(=O)N2CCCC2)n1" ?
848

====

# Assay Remarks: gradient 5% acetonitrile 3 min, to 50% in 2 min, to 85% in 15 min, held 3 min, 100 µL/min
# Stated Conditions: column: Zorbax Extend-C18 2.1 x 50 mm; eluents: water / acetonitrile, 0.1% formic acid
Metric: RP-LC retention time (s)
Please give a number only; it is taken to be in s.

Compound	RP-LC retention time (s)
CCCNc1nc(-c2ccc(Br)cc2)cs1	1000
O=C(NCCCc1ccccc1)c1nnc(-c2ccc(S(=O)(=O)N3CCCCC3)cc2)o1	1070
COc1ccc(-c2c(C)noc2NC(C)=O)cc1S(=O)(=O)N1CCN(c2ccccn2)CC1	612
Cc1csc(C(=O)N2CC3CC2C(=O)O3)c1 (stereo not given)	624

From here, focus on the item given below.
Could you tell me which RP-LC retention time is on file for "CC(C)CNC(=O)N1CC(Oc2ccc(-c3nc(-c4ccccc4)no3)cc2)C1" ?
1060

====

RP-LC retention time values by entry
# Assay Remarks: gradient 5% acetonitrile 3 min, to 50% in 2 min, to 85% in 15 min, held 3 min, 100 µL/min
# Stated Conditions: column: Zorbax Extend-C18 2.1 x 50 mm; eluents: water / acetonitrile, 0.1% formic acid

The examples below pair each entry with its known result.
Compound	Reading
Cn1c(=O)c(SCC(=O)NCc2ccccc2F)nc2ccccc21	785 s
COc1ccc(-c2cc3n(n2)CCCN(S(=O)(=O)c2cccc4cccnc24)C3)cc1	907 s
Cc1ccc2cc(CCC(=O)NC(C)c3cn(C)nc3C)c(=O)[nH]c2c1 (centres undefined)	618 s
Cc1cnc(C(=O)N2[C@H]3CC[C@@H]2c2cnc(-c4ccc(F)cc4)nc2C3)cn1	874 s
Cc1oc(-c2[nH]ncc2C(=O)N(C)C)cc1S(=O)(=O)Nc1ccc(Cl)cc1	703 s
Cc1noc([C@@H]2CN(Cc3ccc(OC(F)(F)F)cc3)C[C@H]2CO)n1	643 s
CCC(CC)C(=O)N1CCC(N2CCN(Cc3ccc(C)cc3)C(=O)C2=O)CC1	756 s
O=C(Nc1ccccc1C(F)(F)F)N1CC(n2cnnc2-c2ccccc2)C1	710 s
CCN1CCN(Cc2nc(-c3ccc(N(C)Cc4ccccc4)nc3)no2)CC1	892 s
Cc1cccc(NC(=O)N2CCc3c(c(-c4nnc(-c5ccccc5Cl)o4)nn3C)C2)c1	902 s

Could you tell me which RP-LC retention time is on file for "CCN1c2ccc(C)cc2C(=O)NC12CCN(C(=O)Cc1ccc(C)cc1)CC2" ?
887 s

Could you tell me which RP-LC retention time is on file for "CC(C)Cn1nc2c(S(=O)(=O)N3CCN(c4ccc(F)cc4)CC3)cccn2c1=O" ?
914 s

Could you tell me which RP-LC retention time is on file for O=C1NC(C(=O)Nc2ccc(F)cc2)Cn2cccc21 (centres undefined) ?
666 s

Could you tell me which RP-LC retention time is on file for Cc1noc(C)c1CCC(=O)N(C)C1CCc2nn(CC3CC3)c(=O)n2CC1 (centres undefined) ?
644 s

Could you tell me which RP-LC retention time is on file for CCC(C(=O)Nc1cc(-c2cn3cccnc3n2)ccc1C)c1ccccc1 (centres undefined) ?
680 s

Could you tell me which RP-LC retention time is on file for COc1cccc(-n2c(N3CCCC(C(=O)NCc4ccccc4)C3)nc3ccsc3c2=O)c1 (centres undefined) ?
859 s

Could you tell me which RP-LC retention time is on file for CCOC(=O)C(C)Sc1nnc(NC(=O)Cc2ccc(OC)cc2)s1 (centres undefined) ?
806 s

Could you tell me which RP-LC retention time is on file for "COc1cc(NC(=O)N2CCN(c3cc(C)nc(N4CCCC4)n3)CC2)cc(OC)c1" ?
676 s

Could you tell me which RP-LC retention time is on file for "O=C(NCc1nnnn1-c1ccc(F)c(F)c1)c1cc(=O)c2ccccc2o1" ?
707 s
